- tgt: Transthyretin (Homo sapiens, UniProt P02766, V50M)
- run-description: Binding affinity to human recombinant TTR V30M mutant denominated hormone binding site expressed in Escherichia coli by FRET analysis
value-type: Kd (µM)

>>> measurement("Nc1cccc2c(S(=O)(=O)O)cccc12")
86

Each recorded value in this set is attributed to ChEMBL document CHEMBL1157695.
